src = the nanobody polyreactivity screen of Harvey et al. (2022)

experiment: yeast display, Sf9 membrane polyspecificity reagent, FACS + sequencing; frameworks hold sequencing errors
Parameter: polyreactivity (PSR sort gate)

Please review the entries below; each comes with its answer.
{"columns": ["Query Sequence", "polyreactivity (PSR sort gate)"],
 "data": [
  ["QVQLVESGGGLVQAGGSLRLSCAASGFIFYYYAMGWYRQAPAKERELVAVITSGGSTNYADSVKGRFTISRDNAKNTVYLQMNSLKPEDTAVYYCAARSRRRDDYWGQGTQVTVSS", "high polyreactivity"],
  ["QVQLVESGGGLVQAGGSLRLSCAASGRTLSYYAMGWYRQAPGKHRELVAAITYRAGRTYYADSVKGRFTISRDNAKYTVYLQLNSLKPEVTAVYYCYAVKSTGYGYWGQGTQVTVSS", "high polyreactivity"],
  ["QVQLVESGGGLVQAGGSLRLSCAASGLTFVDNAMGWYRQAPGKESELVAAITKRGGRTYYADSVKGRFTISRDNAKNTFYLQMNSLKPEDTAVYYCARESGNDSSRRLDYWGQGTQVTVSS", "low polyreactivity"],
  ["QVQLVESGGGLVQAGGRLRLSCAASGFTFTNYAMGRYRQAPGKERELVAAISWNGGSTYYADSVKGRFTISRDNAKNTVYLQMNSLKPEDTAVYYCNAYDYQYFYGYEYDYWGQGTQVTVSS", "high polyreactivity"],
  ["QVQLVESGGGLVQAGGSLRLSCADSGYTFVYNAMGWYRQPPGKEREFVAAITWSGTSTRYADSVKGRFTISRDNAKNTVYLQMNSLKPEDTAVYYCAALGSGVPRYYYWGQGTQVTVSS", "high polyreactivity"],
  ["QVQLVETGGGLVQAGGSLRLSCAASGFTFTGNTMGWSRQAPGKERELVAAISQSGSRTYYADSVKGRFTISRDNAKNTVYLQMNSLKPEDTAVYYCNADYSSYWTSYDYWGQGTQVTVSS", "high polyreactivity"]
]}

Task item: I would be grateful if you could share the reported polyreactivity (PSR sort gate) for `QVQLVESGGGLVQAGGSLRLSCAASGSTFAGNAMGWYRQAPGTDRELVAAIDSSTGSTYYADSVKGRYTISRDNAKNTVYLHMNSLKPEDTAVYYCNKTSFLVTLDYWGQGTQVTVSS` .
Reply: low polyreactivity

Task item: I would be grateful if you could share the reported polyreactivity (PSR sort gate) for `QVQLVESGGGLVQAGGSLRLSCAASGRIFDDNTMGWYRQAPGKERELVAVITSGGSTNYADSVKGRFTISRDNAKNTVYLQMNSLKPVDTAVYYCATEPGGYRFDDRAFQYGYWGQGTQVTVSS` .
Reply: low polyreactivity

Task item: I would be grateful if you could share the reported polyreactivity (PSR sort gate) for `QVQLVESGGGLVQAGGSLRLSCAASGFIFYRNTMGWYRQAPGKEREFVAAIRWRGGSTYYADSVKGRFTISRDNAKNTVYLQMNSLKPEDTAVYYCNALGKPTWYATTYDYWGQGTQVTVSS` .
Reply: high polyreactivity

Task item: I would be grateful if you could share the reported polyreactivity (PSR sort gate) for `QVQLVESGGGLVQAGGSLRLSCAASGSIFGYYAMGWYRQAPGKERELVAAISVRGGSTYYADSVKGRFTISRDNAKNTVYLQMNSLKPEDTAVYYCAARISYSLSYWGQGTQVTVSS` .
Reply: high polyreactivity

Task item: I would be grateful if you could share the reported polyreactivity (PSR sort gate) for `QVQLVESGGGLVQAGGSLRLSCAASGFIFYYYAMGWYRQAPGKERELVAAITSGGGTTYYADSVKGRFTISRDNAKNTVYLQMNSLKPEDTAVYYCNADSYYNSWFYYFDGFDGDYWGQGTQVTVSS` .
Reply: high polyreactivity
